# Organism: Rattus norvegicus
# method.summary: Effect on insulin secretion from rat pancreatic islets at 10 uM concentration (n=23)
# Assay type: functional
property.label: Residual insulin release (%)

{"columns": ["molecule", "property.label", "quantitative.readout"],
 "data": [
  ["CC(C)NC1=NS(=O)(=O)c2cc(C(=O)O)ccc2N1", "Residual insulin release", 96.6],
  ["CC(C)NC1=NS(=O)(=O)c2cc(C(N)=O)ccc2N1", "Residual insulin release", 76.6],
  ["CCC(C)NC1=NS(=O)(=O)c2cc(C(=O)O)ccc2N1 (stereo not given)", "Residual insulin release", 93],
  ["CC(C)C(C)NC1=NS(=O)(=O)c2cnccc2N1 (stereo not given)", "Residual insulin release", 13.7],
  ["CCC(C)NC1=NS(=O)(=O)c2cc(C)ccc2N1 (stereo not given)", "Residual insulin release", 50.7]
]}

====

# Organism: Rattus norvegicus
# method.summary: Effect on insulin secretion from rat pancreatic islets at 1 uM concentration (n=15)
# Format: functional

{"columns": ["compound", "Residual insulin release (%)"],
 "data": [
  ["CC(C)NC1=NS(=O)(=O)c2ccccc2N1", 73.7],
  ["Cc1ccc2c(c1)S(=O)(=O)N=C(NC(C)C)N2", 71.3],
  ["CC1=Nc2ccc(Cl)cc2S(=O)(=O)N1 [DIAZOXIDE]", 87.5],
  ["CCC(C)NC1=NS(=O)(=O)c2cc(OC)ccc2N1 (centres undefined)", 92.4]
]}

====

# Species: Rattus norvegicus
# method.summary: Concentration giving 50% relaxation of the 30 mM KCl-induced contraction of rat aortic rings (n=6)
# Format: functional
# recorded.conditions: Aorta, read-out: ED50 (the source's name)

{"columns": ["query.smiles", "EC50 / µM"],
 "data": [
  ["CC(C)NC1=NS(=O)(=O)c2cc(Cl)ccc2N1", 36.3],
  ["COc1ccc2c(c1)S(=O)(=O)NC(NC1CCC1)=N2", 157],
  ["CCNC1=NS(=O)(=O)c2cc(C)ccc2N1", 210],
  ["CC(C)NC1=NS(=O)(=O)c2cc(C(F)(F)F)ccc2N1", 13.1]
]}

====

Recorded measurements of pKa, one per entry
# method.summary: Ionization constant was determined
# Type: physicochemical
property.label: pKa

{"columns": ["query.smiles", "result"],
 "data": [
  ["CC(C)NC1=NS(=O)(=O)c2cc(C#N)ccc2N1", 8.56],
  ["CC(C)NC1=NS(=O)(=O)c2cc([N+](=O)[O-])ccc2N1", 7.91],
  ["CC(C)NC1=NS(=O)(=O)c2cc(N)ccc2N1", 10.5],
  ["CC(C)NC1=NS(=O)(=O)c2ccccc2N1", 9.98],
  ["CC(=O)Nc1ccc2c(c1)S(=O)(=O)N=C(NC(C)C)N2", 9.8],
  ["CC(C)NC1=NS(=O)(=O)c2cc(C(F)(F)F)ccc2N1", 8.96],
  ["Cc1ccc2c(c1)S(=O)(=O)N=C(NC(C)C)N2", 10.2],
  ["COc1ccc2c(c1)S(=O)(=O)NC(NC(C)C)=N2", 10.1]
]}

====

# Species on record: Rattus norvegicus
# method.summary: ED50/IC50 ratio was determined
# Assay type: functional
Listed here: items and their measured Ratio.

{"columns": ["compound", "limit.operator", "Ratio"],
 "data": [
  ["CC(C)NC1=NS(=O)(=O)c2ccccc2N1", ">", 79],
  ["CCCNC1=NS(=O)(=O)c2cc(OC)ccc2N1", ">", 34],
  ["COc1ccc2c(c1)S(=O)(=O)NC(NC1CCC1)=N2", "=", 72],
  ["CC1=Nc2ccc(Cl)cc2S(=O)(=O)N1 [DIAZOXIDE]", "=", 1],
  ["CCC(C)NC1=NS(=O)(=O)c2cc(C)ccc2N1 (stereo not drawn)", "=", 1.4],
  ["CC(C)NC1=NS(=O)(=O)c2cc(C(F)(F)F)ccc2N1", "=", 7.7],
  ["CCC(C)NC1=NS(=O)(=O)c2cc(OC)ccc2N1 (stereo not drawn)", "=", 4.4],
  ["CC(C)C(C)NC1=NS(=O)(=O)c2cnccc2N1 (stereo not drawn)", "=", 35],
  ["Cc1ccc2c(c1)S(=O)(=O)N=C(NC(C)C)N2", "=", 100],
  ["CCNC1=NS(=O)(=O)c2cc(C)ccc2N1", "=", 84],
  ["Cc1ccc2c(c1)S(=O)(=O)NC(NC1CCC1)=N2", "=", 10],
  ["COc1ccc2c(c1)S(=O)(=O)NC(NC(C)C)=N2", "=", 74],
  ["CC(C)NC1=NS(=O)(=O)c2cc(Cl)ccc2N1", "=", 52]
]}

====

// values below are reported log10 of IC50
# Organism: Rattus norvegicus
# method.summary: Concentration required for 50% inhibition of insulin release in rat pancreatic B-cells
# Assay type: functional, cell-based
property.label: log10 of IC50 (log10 of the value in µM)

{"columns": ["molecule", "quantitative.readout"],
 "data": [
  ["CC(C)NC1=NS(=O)(=O)c2cc(Cl)ccc2N1", -0.15],
  ["CCCNC1=NS(=O)(=O)c2cc(OC)ccc2N1", 0.95],
  ["CC(C)NC1=NS(=O)(=O)c2ccccc2N1", 0.58],
  ["CC1=Nc2ccc(Cl)cc2S(=O)(=O)N1 [DIAZOXIDE]", 1.35],
  ["CCC(C)NC1=NS(=O)(=O)c2cc(C)ccc2N1 (configuration not stated)", 1.05],
  ["Cc1ccc2c(c1)S(=O)(=O)N=C(NC(C)C)N2", 0.30],
  ["CCC(C)NC1=NS(=O)(=O)c2cc(OC)ccc2N1 (configuration not stated)", 0.60],
  ["COc1ccc2c(c1)S(=O)(=O)NC(NC(C)C)=N2", 0.57],
  ["CCNC1=NS(=O)(=O)c2cc(C)ccc2N1", 0.40],
  ["COc1ccc2c(c1)S(=O)(=O)NC(NC1CCC1)=N2", 0.34],
  ["Cc1ccc2c(c1)S(=O)(=O)NC(NC1CCC1)=N2", 0.75],
  ["CC(C)NC1=NS(=O)(=O)c2cc(C(F)(F)F)ccc2N1", 0.23]
]}
